Cited source: ChEMBL document CHEMBL1134105

# Tested on: SK-MEL
# protocol_text: Cytotoxicity against human malignant melanoma cell line SK-MEL
# Assay type: functional, cell-based
pIC50: −log10 of the molar value.

compound | pIC50
CC1(C)C2CCC[C@H](/C=C/c3ccccc3C(=O)O)[C@@]2(C)CC[C@@H]1O (some centres undefined) | 3.42
CC1(C)C2CCC[C@H](/C=C/c3ccc(C(=O)O)cc3)[C@@]2(C)CC[C@@H]1O (some centres undefined) | 3.42
COc1ccc(CO[C@H]2CC[C@]3(C)CC(Cc4cccc(C(=O)O)c4)CCC3C2(C)C)cc1 (single isomer, unassigned) | 3.74
COc1ccc(CO[C@H]2CC[C@]3(C)C[C@H](Cc4ccccc4C(=O)O)CCC3C2(C)C)cc1 (some centres undefined) | 3.78
